- assay_system: Nuclear receptor subfamily 1 group I member 2 (Rattus norvegicus) (UniProt Q9R1A7)
- Sequence (Q9R1A7 whole entry, looked up): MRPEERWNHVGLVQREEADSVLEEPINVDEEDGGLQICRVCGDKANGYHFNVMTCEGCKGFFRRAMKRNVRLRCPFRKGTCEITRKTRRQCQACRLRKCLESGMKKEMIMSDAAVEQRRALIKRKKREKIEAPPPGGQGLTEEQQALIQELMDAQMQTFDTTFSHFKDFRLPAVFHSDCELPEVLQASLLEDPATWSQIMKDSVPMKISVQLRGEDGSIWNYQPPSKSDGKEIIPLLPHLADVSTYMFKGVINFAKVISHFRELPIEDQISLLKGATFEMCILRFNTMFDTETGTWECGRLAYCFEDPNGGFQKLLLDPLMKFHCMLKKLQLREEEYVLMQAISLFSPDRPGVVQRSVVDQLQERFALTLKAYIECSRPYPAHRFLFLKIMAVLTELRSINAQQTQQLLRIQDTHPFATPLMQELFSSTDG
- experimental_protocol: Rat pregnane X receptor (rPXR) activation by small molecules, qHTS assay (AID 1346983); further: on the % scale 0 is the no-effect control and ±100 the full control effect; nearly all actives have a fitted effect of over 20% in size
- test_parameters: rPXR luciferase reporter cells, One-Glo luminescence, 24 h; stronger effect = higher value
Results filed as inconclusive are left out.
measured_parameter: max activation (%)
Respond numerically; units are % and should not be typed.

See these solved cases before continuing.
>  <compound>
N[C@H](C(=O)O)[C@@H](O)c1ccc(O)c(O)c1

>  <max activation (%)>
-4.66

$$$$
>  <compound>
CCCc1ncc(C[n+]2ccccc2C)c(N)n1

>  <max activation (%)>
-3.34

$$$$
>  <compound>
CCCCCCCCCCOc1cc2c(=O)c(C(=O)OCC)c[nH]c2cc1OCC

>  <max activation (%)>
-1.23

$$$$
>  <compound>
O=C(O)c1cn(C2CC2)c2cc(N3CCNCC3)c(F)cc2c1=O

>  <max activation (%)>
-1.42

$$$$
>  <compound>
Cc1ncc(COP(=O)(O)O)c(C=O)c1O

>  <max activation (%)>
-2.51

$$$$

Query: # query: max activation of entry CN(C)C(=O)Oc1cccc([N+](C)(C)C)c1
Response: -2.37

Query: # query: max activation of entry COc1cc(C)nc(-n2nc(C)cc2OC)n1
Response: 0.673

Query: # query: max activation of entry Nc1c2c(nc3c1CCC3)CCCC2
Response: -1.69

Query: # query: max activation of entry CC(=O)Nc1ccc(OCC(O)CNC(C)C)cc1 (configuration not stated)
Response: 0.433

Query: # query: max activation of entry CCC1C(=O)OCC1Cc1cncn1C (configuration not stated)
Response: -2.44

Query: # query: max activation of entry CO[C@@]1(NC(=O)C(C(=O)O)c2ccc(O)cc2)C(=O)N2C(C(=O)O)=C(CSc3nnnn3C)CO[C@@H]21 (some centres not stated)
Response: -4.79

Query: # query: max activation of entry C[C@@H]1CCC[C@H](C)N1
Response: -0.283

###

- assay_system: Cytochrome P450 1A2 (Homo sapiens) (UniProt P05177)
- Sequence (P05177 whole entry, looked up): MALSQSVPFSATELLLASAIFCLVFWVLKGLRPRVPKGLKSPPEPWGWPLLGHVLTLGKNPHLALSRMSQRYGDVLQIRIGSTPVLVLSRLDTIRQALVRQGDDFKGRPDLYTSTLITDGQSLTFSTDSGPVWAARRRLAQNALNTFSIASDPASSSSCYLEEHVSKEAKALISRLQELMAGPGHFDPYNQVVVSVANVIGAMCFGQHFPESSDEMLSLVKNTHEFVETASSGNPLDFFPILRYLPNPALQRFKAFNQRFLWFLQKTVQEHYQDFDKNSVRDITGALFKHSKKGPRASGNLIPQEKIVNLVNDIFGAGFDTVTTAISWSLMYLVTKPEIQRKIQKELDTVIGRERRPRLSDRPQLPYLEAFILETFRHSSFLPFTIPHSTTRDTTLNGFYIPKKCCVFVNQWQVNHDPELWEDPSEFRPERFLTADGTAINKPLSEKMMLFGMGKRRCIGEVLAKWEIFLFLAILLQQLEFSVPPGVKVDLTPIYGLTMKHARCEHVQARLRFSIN
- experimental_protocol: Cytochrome P450 Family 1 Subfamily A Member 2 (CYP1A2) small molecule antagonists: luciferase reporter qHTS assay (AID 1671199); further: nearly all actives have a fitted effect of over 50% in size
- test_parameters: P450-Glo CYP1A2 enzyme, luciferin luminescence, 1 h; series mostly up to 53 µM
Inconclusive results are not listed. Calls of active or inactive are those of the source. The call rests on the fitted dose curve; in most records, active means well fitted inhibition curve with a large enough effect in the repeat runs; inconclusive means weak or mixed curves; inactive means no such curve, though single readings can be large or run the other way.
Select the matching outcome among class 1 (active), class 0 (inactive)

>  <compound>
O=Cc1cccc(Br)c1

>  <class>
class 1

$$$$
>  <compound>
CCOC(=O)OC(C)OC1=C(C(=O)Nc2ccccn2)N(C)S(=O)(=O)c2ccccc21 (configuration not stated)

>  <class>
class 0

$$$$
>  <compound>
C[N+]1(C)CCCC(OC(=O)C(O)(c2ccccc2)c2ccccc2)C1 (configuration not stated)

>  <class>
class 0

$$$$

Query: What outcome does the record of this test show for O=C(O)CCCC[P+](c1ccccc1)(c1ccccc1)c1ccccc1 ?
Response: class 0

###

- experimental_protocol: qHTS assay to identify small molecule agonists of the estrogen related receptor (ERR) signaling pathway from Tox21 library (AID 1224849); further: on the % scale 0 is the no-effect control and ±100 the full control effect; nearly all actives have a fitted effect of over 15% in size
- test_parameters: ERR reporter cell line, ONE-Glo luciferase, 18 h; series mostly up to 92.4 µM
The source made the active and inactive calls. Calls follow the shape of the full dose curve.
measured_parameter: activity change, positive = activation

>  <structure_notation>
COCCOCC(OC)OC

>  <measured_parameter>
activity change, positive = activation

>  <result>
inactive

$$$$
>  <structure_notation>
CC1=C(C/C=C(\C)CCC[C@H](C)CCC[C@H](C)CCCC(C)C)C(=O)c2ccccc2C1=O

>  <measured_parameter>
activity change, positive = activation

>  <result>
inactive

$$$$
>  <structure_notation>
CCCCOCCOC(=O)CCCCCCCCC(=O)OCCOCCCC

>  <measured_parameter>
activity change, positive = activation

>  <result>
inactive

$$$$

###

- experimental_protocol: qHTS assay for small molecule agonists of the p53 signaling pathway (AID 651631); further: on the % scale 0 is the no-effect control and ±100 the full control effect; nearly all actives have a fitted effect of over 15% in size
- test_parameters: HCT-116 p53RE-bla reporter, beta-lactamase FRET ratio, 16 h; series mostly up to 73.3 µM
Inconclusive results are not listed. Active and inactive are the calls of the source. Calls follow the shape of the full dose curve.
Select the matching outcome among T for active, F for inactive

Use these answered entries as a reference point.
>  <molecule>
CCC(C)(CCCC(C)C)OC(C)=O (configuration not stated)

>  <class>
F

$$$$
>  <molecule>
COc1cc2c(cc1OC)-c1cc3ccc(OC)c(OC)c3c[n+]1CC2

>  <class>
F

$$$$
>  <molecule>
CC(=O)C1CCCCC1=O (configuration not stated)

>  <class>
F

$$$$
>  <molecule>
CC(C)C(=O)OC(=O)C(C)C

>  <class>
F

$$$$
>  <molecule>
C=COCC1CCC(COC=C)CC1 (configuration not stated)

>  <class>
F

$$$$
>  <molecule>
CC1(C)OC[C@@H](COC(=O)CCc2ccc(OC[C@@H](O)CNCCNC(=O)N3CCOCC3)cc2)O1

>  <class>
F

$$$$
>  <molecule>
CC(N)C12CC3CC(CC(C3)C1)C2 (configuration not stated)

>  <class>
F

$$$$
>  <molecule>
CCNS(=O)(=O)c1ccc(C)cc1

>  <class>
F

$$$$

Query: What outcome does the record of this test show for CCCCCC(C)N (configuration not stated) ?
Response: F

Query: What outcome does the record of this test show for CC[C@H]1OC(=O)[C@H](C)[C@@H](O[C@H]2C[C@@](C)(OC)[C@@H](O)[C@H](C)O2)[C@H](C)[C@@H](O[C@@H]2O[C@H](C)C[C@H](N(C)C)[C@H]2O)[C@](C)(OC)C[C@@H](C)C(=O)[C@H](C)[C@@H](O)[C@]1(C)O ?
Response: F

Query: What outcome does the record of this test show for CCCCCCC1CCC(=O)O1 (configuration not stated) ?
Response: F

Query: What outcome does the record of this test show for CC(=O)c1ccc2ccccc2c1 ?
Response: F

Query: What outcome does the record of this test show for C=C[Si](OC(C)=O)(OC(C)=O)OC(C)=O ?
Response: F

###

- assay_system: Aryl hydrocarbon receptor (Homo sapiens) (UniProt P35869)
- Sequence (P35869 whole entry, looked up): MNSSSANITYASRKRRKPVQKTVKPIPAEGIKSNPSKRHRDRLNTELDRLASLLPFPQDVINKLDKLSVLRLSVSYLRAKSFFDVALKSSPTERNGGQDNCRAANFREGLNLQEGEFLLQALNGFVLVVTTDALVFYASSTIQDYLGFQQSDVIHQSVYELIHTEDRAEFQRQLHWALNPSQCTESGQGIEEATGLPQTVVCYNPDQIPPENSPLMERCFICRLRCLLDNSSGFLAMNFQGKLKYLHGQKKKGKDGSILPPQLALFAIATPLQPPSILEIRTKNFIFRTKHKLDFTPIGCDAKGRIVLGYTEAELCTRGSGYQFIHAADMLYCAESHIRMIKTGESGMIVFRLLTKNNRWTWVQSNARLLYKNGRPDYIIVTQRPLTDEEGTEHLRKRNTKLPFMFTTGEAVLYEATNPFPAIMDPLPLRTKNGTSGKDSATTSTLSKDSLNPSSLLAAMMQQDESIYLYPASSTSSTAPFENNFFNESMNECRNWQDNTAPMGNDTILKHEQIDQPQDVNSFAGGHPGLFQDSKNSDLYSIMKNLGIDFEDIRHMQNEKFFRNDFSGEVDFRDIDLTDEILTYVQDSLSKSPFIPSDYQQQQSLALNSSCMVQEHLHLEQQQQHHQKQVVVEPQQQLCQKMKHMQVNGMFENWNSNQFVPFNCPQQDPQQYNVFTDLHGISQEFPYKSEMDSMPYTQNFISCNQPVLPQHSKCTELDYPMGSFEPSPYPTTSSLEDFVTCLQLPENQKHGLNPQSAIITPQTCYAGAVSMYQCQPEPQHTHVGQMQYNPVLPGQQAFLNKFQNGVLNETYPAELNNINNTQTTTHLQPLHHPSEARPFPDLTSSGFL
- experimental_protocol: qHTS assay to identify small molecule that activate the aryl hydrocarbon receptor (AhR) signaling pathway (AID 743085); further: nearly all actives have a fitted effect of over 15% in size;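 on activation: HG2L7.5c1 human HepG2 liver cells with stably integrated DRE-driven firefly reporter; on the % scale 0 is the no-effect control and ±100 the full control effect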
- test_parameters: HepG2 AhR-luc (HG2L7.5c1), luciferase, 24 h; series mostly up to 70.3 µM
Results filed as inconclusive are left out. Calls of active or inactive are those of the source. Calls come from the whole dose curve; as a rule, active = well fitted activation curve with a large enough effect in the repeat runs; inconclusive = weak or mixed curves; inactive = no such curve, though single readings can be large or run the other way.
Select the matching outcome among class 1 (active), class 0 (inactive)

Use these answered entries as a reference point.
>  <compound>
CCCCCCCCCC[N+](C)(C)[O-]

>  <class>
class 0

$$$$
>  <compound>
CC(CO)(CO)[N+](=O)[O-]

>  <class>
class 0

$$$$
>  <compound>
c1ccc2sc(SN3CCOCC3)nc2c1

>  <class>
class 1

$$$$
>  <compound>
CCN1C=CN(C)C1C (stereo not given)

>  <class>
class 0

$$$$
>  <compound>
OCCCCCO

>  <class>
class 0

$$$$

Query: What outcome does the record of this test show for NC(N)=NCCN1CCCCCCC1 ?
Response: class 0

Query: What outcome does the record of this test show for CCOC(=O)COC(=O)c1ccccc1C(=O)OCC ?
Response: class 0

Query: What outcome does the record of this test show for CCOC(=O)CCC(=O)OCC ?
Response: class 0

Query: What outcome does the record of this test show for CCCCOCCOC(=O)CCCCCCCCC(=O)OCCOCCCC ?
Response: class 0

Query: What outcome does the record of this test show for O=C(CO)[C@@H](O)[C@H](O)[C@H](O)CO ?
Response: class 0

Query: What outcome does the record of this test show for CCCCCCCCCCOc1cc2c(=O)c(C(=O)OCC)c[nH]c2cc1OCC ?
Response: class 0

Query: What outcome does the record of this test show for CC(=O)NC(=O)c1ccccc1O ?
Response: class 0

Query: What outcome does the record of this test show for CCCCN1C=CN(C)C1 ?
Response: class 0

Query: What outcome does the record of this test show for Cc1ccc(-c2ncc(Cl)cc2-c2ccc(S(C)(=O)=O)cc2)cn1 ?
Response: class 0

Query: What outcome does the record of this test show for [O-][n+]1cccc(CO)c1 ?
Response: class 0

Query: What outcome does the record of this test show for Cc1ccccc1N=C(N)N=C(N)N ?
Response: class 0

Query: What outcome does the record of this test show for CCN[C@H]1C[C@H](C)S(=O)(=O)c2sc(S(N)(=O)=O)cc21 ?
Response: class 0

Query: What outcome does the record of this test show for O=C(CO)[C@@H](O)[C@H](O)[C@@H](O)CO ?
Response: class 0

###

- assay_system: Progesterone receptor (Homo sapiens)
- experimental_protocol: qHTS assay to identify small molecule agonists of the progesterone receptor (PR) signaling pathway (AID 1346784); further: on the % scale 0 is the no-effect control and ±100 the full control effect; nearly all actives have a fitted effect of over 30% in size
- test_parameters: PR-UAS-bla HEK293T, beta-lactamase FRET ratio, 16 h; series mostly up to 92.4 µM
Inconclusive results are not listed. The source made the active and inactive calls. Calls come from the whole dose curve.
measured_parameter: activation

See these solved cases before continuing.
>  <compound>
CC(C)c1ccc2ncccc2c1

>  <activation>
inactive

$$$$
>  <compound>
NC(=O)Cc1cccc2ccccc12

>  <activation>
inactive

$$$$
>  <compound>
CC1=C(C/C=C(\C)CCC[C@H](C)CCC[C@H](C)CCCC(C)C)C(=O)c2ccccc2C1=O

>  <activation>
inactive

$$$$
>  <compound>
O=S(=O)(O)c1cccc2ccccc12

>  <activation>
inactive

$$$$

Query: # query: activation of entry C=CCOCC(O)CO (stereo unspecified)
Response: inactive

Query: # query: activation of entry CN1C(C)(C)CC(O)CC1(C)C
Response: inactive

Query: # query: activation of entry [K+]
Response: inactive

Query: # query: activation of entry CC(COc1ccccc1)NN (stereo unspecified)
Response: inactive

Query: # query: activation of entry O=C(c1ccccc1)C1(O)CCCCC1
Response: inactive

Query: # query: activation of entry CN1CCC(=C2c3ccccc3CCc3cccnc32)CC1
Response: inactive

Query: # query: activation of entry C[C@H]1[C@H](NC(=O)/C(=N/OC(C)(C)C(=O)O)c2csc(N)n2)C(=O)N1S(=O)(=O)O (stereo in doubt)
Response: inactive
